# system: Steroid C26-monooxygenase (Mycobacterium tuberculosis (strain CDC 1551 / Oshkosh), UniProt P9WPL4)
# Sequence (P9WPL4 whole entry): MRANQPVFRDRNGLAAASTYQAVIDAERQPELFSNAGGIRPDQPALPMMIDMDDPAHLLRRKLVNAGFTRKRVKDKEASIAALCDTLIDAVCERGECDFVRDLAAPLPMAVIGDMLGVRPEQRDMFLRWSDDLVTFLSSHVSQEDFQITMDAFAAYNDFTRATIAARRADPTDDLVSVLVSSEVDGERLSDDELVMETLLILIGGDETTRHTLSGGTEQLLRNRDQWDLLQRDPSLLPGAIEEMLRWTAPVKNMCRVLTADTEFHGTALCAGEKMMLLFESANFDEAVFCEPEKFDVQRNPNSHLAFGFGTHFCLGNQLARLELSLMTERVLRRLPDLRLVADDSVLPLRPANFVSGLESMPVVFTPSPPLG
# testDescription: Binding Assay
# Source text: Binding assay using CYP130, CYP130 (G234) or CYP142.
assayEndpoint: Kd (nM)
Give bare numbers, in nM.

• Nc1ccc(Sc2ccc(N3C(=O)c4ccc(N)cc4C3=O)cc2)cc1 = 170
• Nc1ccccc1 = 59200
• NCc1ccccc1 = 100

Sample Clc1ccc(COC(Cn2ccnc2)c2ccc(Cl)cc2Cl)cc1 (centres undefined) ; Kd observed: 330

---

# system: Cytochrome P450 130 (Mycobacterium tuberculosis (strain ATCC 25618 / H37Rv), UniProt P9WPN5)
# Sequence (P9WPN5 whole entry): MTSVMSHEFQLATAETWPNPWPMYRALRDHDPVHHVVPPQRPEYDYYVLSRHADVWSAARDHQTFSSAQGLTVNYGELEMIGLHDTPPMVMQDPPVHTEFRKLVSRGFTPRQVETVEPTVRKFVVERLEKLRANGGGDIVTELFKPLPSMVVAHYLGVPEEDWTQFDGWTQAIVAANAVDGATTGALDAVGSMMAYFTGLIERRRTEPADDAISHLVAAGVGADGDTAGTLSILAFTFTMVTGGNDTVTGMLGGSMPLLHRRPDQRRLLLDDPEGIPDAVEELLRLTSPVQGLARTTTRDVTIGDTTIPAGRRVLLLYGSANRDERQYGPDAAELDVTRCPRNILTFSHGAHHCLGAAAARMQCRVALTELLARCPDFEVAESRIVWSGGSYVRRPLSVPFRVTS
# testDescription: Binding Assay
pKd: −log10 of the molar value.
Everything with pKd lower than 4 is NOT MET; everything else, including exactly 4, is MET.

Example entries and their recorded answers appear below.
* Clc1ccc(COC(Cn2ccnc2)c2ccc(Cl)cc2Cl)cc1 (stereo unspecified) | MET
* NCc1ccccc1 | NOT MET
* Nc1ccccc1 | NOT MET
* Clc1ccccc1C(c1ccccc1)(c1ccccc1)n1ccnc1 | MET
* Nc1ccc(Sc2ccc(N3C(=O)c4ccc(N)cc4C3=O)cc2)cc1 | MET

Please tell me: is the compound `Cc1cccc(-n2cnc3cc(N)ccc32)c1` at or over 4 in terms of pKd?
MET
